biological target: GST-tagged K-Ras mutant / His-tagged hSOS1 (Homo sapiens, UniProt P01116); experiment: HTRF assay, K-Ras mutant / SOS1 interaction; assay type: binding; conditions: compound nos. 401-703; read-out: IC50 against mutant Kras
Sequence (P01116 whole entry G12D, form open): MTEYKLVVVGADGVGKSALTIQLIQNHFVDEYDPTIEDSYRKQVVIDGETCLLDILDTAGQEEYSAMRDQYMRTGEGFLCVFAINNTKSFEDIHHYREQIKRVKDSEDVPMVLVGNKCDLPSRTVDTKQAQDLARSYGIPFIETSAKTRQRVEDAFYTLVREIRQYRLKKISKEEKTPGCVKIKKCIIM
Parameter IC50: see the listing below.
PROPERTY: IC50

1. N#CCCc1cc2c(N3CC4CCC(C3)N4)nc(OC[C@@]34CCCN3C[C@H](F)C4)nc2c(F)c1-c1ccc(F)c2sc(N)nc12 [Compound 496] : < 500 nM
2. Nc1cc(-c2ccc3c(N4CC5CCC(C4)N5)nc(OCC45CCCN4CCC5)nc3c2F)c2ccccc2n1 [Compound 641] : > 500 nM
3. CN1CCC[C@H]1COc1nc(N2CC3CCC(C2)N3)c2cc(Cl)c(-c3cccc4sc(N)nc34)c(F)c2n1 [Compound 565] : < 500 nM
4. Fc1c(Br)c(Cl)cc2c(N3CC4CCC(C3)N4)nc(OC[C@@]34CCCN3C[C@H](F)C4)nc12 [Compound 479] : > 500 nM
5. Nc1nc2c(-c3c(Cl)cc4c(N5CCNC(=O)CC5)nc(OC[C@@]56CCCN5C[C@H](F)C6)nc4c3F)ccc(F)c2s1 [Compound 604] : < 500 nM
6. Nc1nc2c(-c3cc4ncnc(N5CC6CCC(C5)N6)c4cc3Cl)ccc(F)c2s1 [Compound 635] : > 500 nM
7. O=C(c1cc(O)cc2ccccc12)N1CCc2nc(OCC34CCCN3CCC4)nc(N3CC4CCC(C3)N4)c2CC1 [Compound 694] : > 500 nM

* * *

molecular target: wildtype Kras / hSOS1 (Homo sapiens); construct: made in house; host or cells: E. coli BL21 (DE3); experiment: HTRF assay, wildtype Kras / SOS1 interaction; type: binding; conditions: compound nos. 401-703; read-out: IC50 against wildtype Kras
Sequence (P01116 1-188 isoform P01116-2): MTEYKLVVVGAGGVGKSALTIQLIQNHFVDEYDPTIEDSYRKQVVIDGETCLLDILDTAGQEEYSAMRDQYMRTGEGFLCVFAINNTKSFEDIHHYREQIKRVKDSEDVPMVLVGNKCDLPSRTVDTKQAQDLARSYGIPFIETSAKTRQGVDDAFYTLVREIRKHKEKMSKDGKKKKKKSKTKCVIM
PROPERTY: IC50

1. CNCCN1[C@@H]2CC[C@H]1CN(c1nc(OCC34CCCN3CCC4)nc3c(F)c(-c4ccc(F)c5sc(N)nc45)c(Cl)cc13)C2 : > 500 nM
2. Nc1nc2c(-c3c(Cl)cc4c(N5CC6CCC(C5)O6)nc(OC[C@@]56CCCN5C[C@H](F)C6)nc4c3F)ccc(F)c2s1 : < 500 nM
3. Nc1nc2c(-c3c(Cl)cc4c(N5CCCOC(CO)C5)nc(OCC56CCCN5CCC6)nc4c3F)cccc2s1 (stereo not drawn) : < 500 nM

* * *

Listed compounds paired with reported IC50
target: wildtype Kras / hSOS1 (Homo sapiens); construct: made in house; host or cells: E. coli BL21 (DE3); test: HTRF assay, wildtype Kras / SOS1 interaction; assay type: binding; settings: compound nos. 401-703; read-out: IC50 against wildtype Kras
PROPERTY: IC50

1) N#Cc1ccc2ccccc2c1-c1ccc2c(N3CC4CCC(C3)N4)nc(OC[C@@]34CCCN3C[C@H](F)C4)nc2c1F [Compound 691] : > 500 nM
2) Nc1nc2c(-c3c(Cl)cc4c(N5C[C@H]6CC[C@@H](C5)[C@@H]6N)nc(OCC56CCCN5CCC6)nc4c3F)ccc(F)c2s1 [Compound 413] : < 500 nM
3) Nc1ccc(C2CC2)c(-c2ccc3c(N4CC5CCC(C4)N5)nc(OC[C@@]45CCCN4C[C@H](F)C5)nc3c2F)n1 [Compound 458] : < 500 nM
4) Nc1nc2c(-c3c(Cl)cc4c(N5CC6CCC(C5)N6)nc(OCC5(CN6CCC(F)(F)C6)CC5)nc4c3F)ccc(F)c2s1 [Compound 411] : < 500 nM
5) Nc1ccc2cccc(-c3c(Cl)cc4c(N5CC6CCC(C5)N6)nc(OCC56CCCN5CCC6)nc4c3F)c2n1 [Compound 597] : > 500 nM
6) CN1CCC[C@H]1COc1nc(N2CCCCC(C(N)=O)C2)c2cc(Cl)c(-c3cccc4sc(N)nc34)c(F)c2n1 (stereo partly drawn) [Compound 455] : < 500 nM
7) Nc1nc2c(-c3c(Cl)cc4c(N5CC6CCC(C5)N6)nc(OCCCN5CCCC5)nc4c3F)ccc(F)c2s1 [Compound 457] : < 500 nM
8) Nc1nc2c(-c3c(Cl)cc4c(N5CC6CCC(C5)N6)nc(OCC56CCCN5CCC6)nc4c3F)cc(Cl)cc2s1 [Compound 615] : > 500 nM
9) Nc1nc2c(-c3c(Cl)cc4c(N5CCCS(=O)(=O)CC5)nc(OC[C@@]56CCCN5C[C@H](F)C6)nc4c3F)ccc(F)c2s1 [Compound 477] : < 500 nM
10) Nc1nc2c(-c3c(Cl)cc4c(N5CC6CCC(C5)N6)nc(OC[C@@]56CCCN5C[C@H](F)C6)nc4c3F)cccc2cc1F [Compound 665] : > 500 nM
11) Oc1cc(-c2c(F)cc3c(N4CC5CCC(C4)N5)nc(OCC45CCCN4CCC5)nc3c2F)c2ccccc2c1 [Compound 669] : > 500 nM
12) Oc1ccc2ccc(-c3c(Cl)cc4c(N5CC6CCC(C5)N6)nc(OCC56CCCN5CCC6)nc4c3F)cc2c1 [Compound 650] : > 500 nM
13) Cc1ccc(CN)cc1-c1c(Cl)cc2c(N3CC4CCC(C3)N4)nc(OCC34CCCN3CCC4)nc2c1F [Compound 469] : < 500 nM
14) Nc1nc2c(-c3c(Cl)cc4c(N5C[C@H]6CCNCC[C@H]6C5)nc(OC[C@@]56CCCN5C[C@H](F)C6)nc4c3F)ccc(F)c2s1 [Compound 528] : > 500 nM
15) N#CC1CCCN(c2nc(OC[C@@]34CCCN3C[C@H](F)C4)nc3c(F)c(-c4ccc(F)c5sc(N)nc45)c(Cl)cc23)CC1 (stereo partly drawn) [Compound 433] : < 500 nM
16) CC1CCCCN(c2nc(OC[C@@H]3CCCN3C)nc3c(F)c(-c4cccc5sc(N)nc45)c(Cl)cc23)C1 (stereo partly drawn) [Compound 550] : > 500 nM
17) Fc1c(-c2cccc3c2CCCS3)c(Cl)cc2c(N3CC4CCC(C3)N4)nc(OC[C@@]34CCCN3C[C@H](F)C4)nc12 [Compound 637] : > 500 nM
18) Oc1cc(-c2ncc3c(N4C[C@H]5CC[C@@H](C4)N5)nc(OC[C@@]45CCCN4C[C@H](F)C5)nc3n2)c2ccccc2c1 [Compound 418] : < 500 nM
19) CN(C)C1CN(c2nc(N3CC4CCC(C3)N4)c3cc(CCC#N)c(-c4ccc(F)c5sc(N)nc45)c(F)c3n2)C1 [Compound 516] : > 500 nM
20) Nc1nc2c(-c3cc4c(=O)n(CCN5CCCC5)nc(N5C[C@H]6CC[C@@H](C5)N6)c4cc3Cl)ccc(F)c2s1 [Compound 404] : < 500 nM
21) Nc1nc2c(-c3c(Cl)cc4c(N5CC6CCC(C5)N6)nc(OCC56CCCN5CCC6)nc4c3F)c(F)ccc2s1 [Compound 578] : > 500 nM
22) CN1CCC[C@H]1COc1nc(N2CCCCC(O)C2)c2cc(Cl)c(-c3cccc4sc(N)nc34)c(F)c2n1 (stereo partly drawn) [Compound 506] : > 500 nM
23) Nc1nc2c(-c3c(F)cc4c(N5CC6CCC(C5)N6)nc(OCC56CCCN5CCC6)nc4c3F)ccc(F)c2s1 [Compound 680] : > 500 nM
24) Nc1nc2c(-c3cc4nc(OCC56CCCN5CCC6)nc(N5CC6CCC(C5)N6)c4cc3Cl)ccc(F)c2s1 [Compound 591] : > 500 nM
25) Fc1c(N2CCc3ccccc32)ccc2c(N3CCCCCC3)nc(OCC34CCCN3CCC4)nc12 [Compound 487] : < 500 nM
26) Cc1ccc2cn[nH]c2c1-c1c(Cl)cc2c(N3CC4CCC(C3)N4)nc(OC[C@@]34CCCN3C[C@H](F)C4)nc2c1F [Compound 611] : > 500 nM
27) Nc1nc2c(-c3c(Cl)cc4c(N5CC6COCC(C5)N6)nc(OC[C@@]56CCCN5C[C@H](F)C6)nc4c3F)ccc(F)c2s1 [Compound 547] : > 500 nM
